All figures here come from ChEMBL document CHEMBL1155081.

# Study system: Glutamate NMDA receptor
# Assay name: Displacement of CGP-39653 from NMDA receptor in rat synaptosomes
A collection of molecules and their measured IC50

**Q:** Query IC50 on Glutamate NMDA receptor for N[C@H](C(=O)O)[C@H](OCc1ccccc1)C(=O)O
**A:** 470 µM

**Q:** Please state recorded IC50 (tested on Glutamate NMDA receptor) of CC(C)[C@H]1CN[C@H](C(=O)O)[C@H]1CC(=O)O [DIHYDROKAINATE]
**A:** 350 µM

**Q:** Recall the recorded IC50 for N[C@@H](C[C@@H](CCC(=O)NCC(c1ccccc1)c1ccccc1)C(=O)O)C(=O)O with Glutamate NMDA receptor and state it.
**A:** > 100 µM

----------
# Study system: Glutamate receptor ionotropic, kainate 1 (Rattus norvegicus)
# Sequence (P22756 whole entry): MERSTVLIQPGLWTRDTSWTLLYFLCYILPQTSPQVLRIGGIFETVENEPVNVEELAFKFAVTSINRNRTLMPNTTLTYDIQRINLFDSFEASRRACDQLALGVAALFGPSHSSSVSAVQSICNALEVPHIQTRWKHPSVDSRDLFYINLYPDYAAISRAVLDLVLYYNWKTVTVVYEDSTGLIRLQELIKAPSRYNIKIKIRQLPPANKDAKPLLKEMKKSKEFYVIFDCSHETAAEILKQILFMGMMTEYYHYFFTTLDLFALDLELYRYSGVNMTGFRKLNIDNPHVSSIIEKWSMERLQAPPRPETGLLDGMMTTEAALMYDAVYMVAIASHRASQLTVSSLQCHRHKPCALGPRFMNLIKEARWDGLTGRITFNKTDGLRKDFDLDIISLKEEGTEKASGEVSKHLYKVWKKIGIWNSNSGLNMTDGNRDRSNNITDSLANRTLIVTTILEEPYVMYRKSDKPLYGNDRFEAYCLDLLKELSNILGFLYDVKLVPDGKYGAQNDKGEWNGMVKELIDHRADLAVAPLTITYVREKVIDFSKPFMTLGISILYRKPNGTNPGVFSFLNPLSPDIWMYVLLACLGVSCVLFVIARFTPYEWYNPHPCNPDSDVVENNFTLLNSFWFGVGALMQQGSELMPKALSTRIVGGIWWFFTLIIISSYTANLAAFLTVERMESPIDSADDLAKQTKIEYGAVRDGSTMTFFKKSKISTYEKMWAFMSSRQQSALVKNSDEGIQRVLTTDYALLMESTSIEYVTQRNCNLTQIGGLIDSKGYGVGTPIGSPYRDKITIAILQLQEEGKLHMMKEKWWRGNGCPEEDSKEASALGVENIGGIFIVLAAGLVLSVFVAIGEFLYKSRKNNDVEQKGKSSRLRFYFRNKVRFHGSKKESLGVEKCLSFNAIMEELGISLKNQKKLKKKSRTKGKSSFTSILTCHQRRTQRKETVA
# Assay name: Displacement of [3H]SYM2081 from rat cloned iGluR5
# Details: read-out: Ki
Assay readout: pKi
Reminder that pKi is minus the log10 of a molar concentration.

Molecule	Value
CC(C)[C@H]1CN[C@H](C(=O)O)[C@H]1CC(=O)O [DIHYDROKAINATE]	5.09

// moving on: another record for pKi
**Q:** Give Glutamate receptor ionotropic, kainate 1 (Rattus norvegicus) pKi for N[C@@H](C[C@@H](CCC(=O)NCC(c1ccccc1)c1ccccc1)C(=O)O)C(=O)O
**A:** 4.43

----------
# System: Escherichia coli
# Assay name: Activity at Escherichia coli JM103 aspartate aminotransferase relative to alpha-ketoglutarate
Measured kcat values are reported for all entries that follow.
Field: numeric (%). Do not append units.

Compound	Unit text	kcat
NC(=O)CCC(CC(=O)C(=O)O)C(=O)O (stereo not given)	%	24.6

Read the next record carefully.
**Q:** Recorded kcat of O=C(CCC(CC(=O)C(=O)O)C(=O)O)NCc1ccccc1 (stereo not given) , please.
**A:** 15

----------
# Assay name: Displacement of […] from AMPA receptor in rat synaptosomes
# Type: subcellular, Brain
pIC50: −log10 of the molar value.
Assay readout: pIC50

Compound	pIC50
N[C@@H](C[C@@H](CCC(=O)NCC(c1ccccc1)c1ccccc1)C(=O)O)C(=O)O	< 4.00

**Q:** # input compound: CC(C)[C@H]1CN[C@H](C(=O)O)[C@H]1CC(=O)O [DIHYDROKAINATE] ; wanted: its pIC50
**A:** 2.96

**Q:** Fill in the blank: the reported pIC50 of N[C@H](C(=O)O)[C@H](OCc1ccccc1)C(=O)O is ____.
**A:** < 3.00

----------
A collection of compounds and their measured pIC50
# Study system: UniProt P43004
# Assay name: Inhibition of glutamate-induced depolarization in human EAAT2 expressed in HEK293 cells by FMP assay
# Format: cell-based
# Details: read-out: IC50
Remember the convention: pIC50 equals -log10 of concentration in molar.

# count of solved cases: 5
Compound	pIC50
NC(=O)CC[C@H](C[C@H](N)C(=O)O)C(=O)O	3.00
N[C@@H](C[C@@H](CCC(=O)NCc1ccccc1)C(=O)O)C(=O)O	3.52
N[C@@H](C[C@@H](CO)C(=O)O)C(=O)O	3.52
N[C@@H](C[C@@H](COCc1ccccc1)C(=O)O)C(=O)O	3.52
CC(C)[C@H]1CN[C@H](C(=O)O)[C@H]1CC(=O)O [DIHYDROKAINATE]	4.05

Please examine the following record next.
**Q:** Requested read-out: pIC50. Entry: NC(C(=O)O)C(OCc1ccccc1)C(=O)O (racemic)
**A:** 5.66
